- assayed target: Aurora kinase B (Homo sapiens)
- Sequence (Q96GD4 whole entry): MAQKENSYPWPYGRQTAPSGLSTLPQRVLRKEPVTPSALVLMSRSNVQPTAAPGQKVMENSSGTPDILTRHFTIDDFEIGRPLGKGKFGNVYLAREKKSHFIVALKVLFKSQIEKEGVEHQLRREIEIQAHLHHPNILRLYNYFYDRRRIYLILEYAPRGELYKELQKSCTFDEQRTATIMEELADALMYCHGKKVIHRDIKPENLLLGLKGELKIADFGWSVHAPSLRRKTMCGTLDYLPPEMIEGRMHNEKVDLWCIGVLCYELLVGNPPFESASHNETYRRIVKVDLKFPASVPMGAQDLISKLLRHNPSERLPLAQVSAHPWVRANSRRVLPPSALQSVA
- method: Inhibition of Aurora kinase B-mediated histone H3 Ser10 phosphorylation in human HCT116 cells after 2 hrs by sandwich ELISA
Consider the cut-off 10 nM. If the recorded IC50 is strictly smaller, the label is class 1; if not, the label is class 0.

[ask] Is the reported IC50 for Cc1cc(Nc2nc(Sc3ccc(NC(=O)CN4CC[C@@H](OCCO)C4)cc3)nn3cccc23)n[nH]1 strictly below 10 nM?
[reply] class 0

[ask] Is the reported IC50 for Cc1cc(Nc2nc(Sc3ccc(NC(=O)CN4CC[C@@H](C(=O)NC5CCC5)C4)cc3)nn3cccc23)n[nH]1 strictly below 10 nM?
[reply] class 1

***
[ask] Is the reported IC50 for COCCO[C@@H]1CCN(CC(=O)Nc2ccc(Sc3nc(Nc4cc(C)[nH]n4)c4cccn4n3)cc2)C1 strictly below 10 nM?
[reply] class 1

[ask] Is the reported IC50 for Cc1cc(Nc2nc(Sc3ccc(NC(=O)CN4CC[C@@H](OC(C)(C)C)C4)cc3)nn3cccc23)n[nH]1 strictly below 10 nM?
[reply] class 1

[ask] Is the reported IC50 for Cc1cc(Nc2nc(Sc3ccc(NC(=O)CN4CC[C@@H]([S+]([O-])C(C)(C)C)C4)cc3)nn3cccc23)n[nH]1 (some centres not stated) strictly below 10 nM?
[reply] class 0

[ask] Is the reported IC50 for Cc1cc(Nc2nc(Sc3ccc(NC(=O)CN4CC[C@@H](C(=O)NCCN5CCOCC5)C4)cc3)nn3cccc23)n[nH]1 strictly below 10 nM?
[reply] class 0

---

- method: AUC (0 to infinity) in Nu/Nu rat at 50 mg/kg, iv administered using TPPW as vehicle
- Assay type: ADME, organism-based
- Design: time infinity, dose 50 mg/kg, route intravenous
- setup conditions: plasma
result type: AUC(0-inf) (µM·h)
Unit µM·h implied. Number only.

[ask] Item under review: Cc1cc(Nc2nc(Sc3ccc(NC(=O)CN4CC[C@@H](C(=O)N5CCC(F)(F)C5)C4)cc3)nn3cccc23)n[nH]1 . Reported AUC(0-inf)?
[reply] 181

---

- method: Volume of distribution in Nu/Nu rat at 15 mg/kg, iv administered using TPPW as vehicle
- Format: ADME, organism-based
- Parameters: dose 15 mg/kg, route intravenous
- setup conditions: in vivo
result type: Vd (L/kg)
Unit L/kg implied. Number only.

[ask] Item under review: Cc1cc(Nc2nc(Sc3ccc(NC(=O)CN4CC[C@@H](C(=O)N5CCC(F)(F)C5)C4)cc3)nn3cccc23)n[nH]1 . Reported Vd?
[reply] 0.8

---

- method: Half life in Nu/Nu rat at 3 mg/kg, iv administered using TPPW as vehicle
- Type: ADME, organism-based
- Set-up: dose 3 mg/kg, route intravenous
- setup conditions: in vivo
result type: half-life (h)
Unit h implied. Number only.

[ask] Item under review: Cc1cc(Nc2nc(Sc3ccc(NC(=O)CN4CC[C@@H](C(=O)NC5CCCC5)C4)cc3)nn3cccc23)n[nH]1 . Reported half-life?
[reply] 1.5

---

- Test system: HCT-116
- method: Antiproliferative activity against human HCT116 cells after 72 hrs by BrdU-based ELISA
- Type: functional, cell-based
- setup conditions: HCT-116, 72 h
Listed next: entries and their corresponding IC50.
Unit nM implied. Number only.

[ask] Item under review: Cc1cc(Nc2nc(Sc3ccc(NC(=O)CN4CC[C@@H](OCCO)C4)cc3)nn3cccc23)n[nH]1 . Reported IC50?
[reply] 5

[ask] Item under review: Cc1cc(Nc2nc(Sc3ccc(NC(=O)CN4CC[C@@H](C(=O)NC5CCCC5)C4)cc3)nn3cccc23)n[nH]1 . Reported IC50?
[reply] 2.3

[ask] Item under review: Cc1cc(Nc2nc(Sc3ccc(NC(=O)CN4CC[C@@H](C(=O)Nc5ccc(F)cc5)C4)cc3)nn3cccc23)n[nH]1 . Reported IC50?
[reply] 3.8

[ask] Item under review: Cc1cc(Nc2nc(Sc3ccc(NC(=O)CN4CC[C@@H]([S+]([O-])C(C)(C)C)C4)cc3)nn3cccc23)n[nH]1 (some centres undefined) . Reported IC50?
[reply] 3.4

[ask] Item under review: Cc1cc(Nc2nc(Sc3ccc(NC(=O)CN4CC[C@H](O)C4)cc3)nn3cccc23)n[nH]1 . Reported IC50?
[reply] 227

[ask] Item under review: Cc1cc(Nc2nc(Sc3ccc(NC(=O)CN4CC[C@H](C(=O)N5CCCC5)C4)cc3)nn3cccc23)n[nH]1 . Reported IC50?
[reply] 16.7

***
[ask] Item under review: Cc1cc(Nc2nc(Sc3ccc(NC(=O)CN4CC[C@@H](C(=O)N5CCC(O)CC5)C4)cc3)nn3cccc23)n[nH]1 . Reported IC50?
[reply] 105

[ask] Item under review: Cc1cc(Nc2nc(Sc3ccc(NC(=O)CN4CC[C@@H](S(=O)(=O)C(C)(C)C)C4)cc3)nn3cccc23)n[nH]1 . Reported IC50?
[reply] 9.2

[ask] Item under review: Cc1cc(Nc2nc(Sc3ccc(NC(=O)CN4CC[C@@H](OCCN5CCN(C)CC5)C4)cc3)nn3cccc23)n[nH]1 . Reported IC50?
[reply] 29.8
